Origin of values: ChEMBL document CHEMBL1144487

Assay: Differential index, LC50 for rat NRK 52E cells to LC50 for mouse 3LL cells
Type: ADME, cell-based
Conditions: NRK 52E cells versus 3LL cells
# label = satisfied if selectivity ratio < 0.4 else not satisfied

INSERT INTO assay_data (smiles_data, assigned_label) VALUES
  ('COC(=O)c1nc(-c2ccc3c(n2)C(=O)C(NC(=O)CCl)=CC3=O)c2[nH]c3ccccc3c2c1C', 'satisfied'),
  ('CC(=O)NC1=CC(=O)c2ccc(-c3nc(C(=O)OCc4ccccc4)cc4c3[nH]c3ccccc34)nc2C1=O', 'satisfied'),
  ('CC(=O)NC1=CC(=O)c2ccc(-c3nc(C(=O)OCCC(C)C)cc4c3[nH]c3ccccc34)nc2C1=O', 'not satisfied'),
  ('COC(=O)c1[nH]c(-c2ccc3c(n2)C(=O)C(NC(C)=O)=CC3=O)c2nc3ccccc3c-2c1C', 'satisfied'),
  ('CC(=O)NC1=CC(=O)c2ccc(-c3nc(C(=O)OCCN(C)C)c(C)c4c3[nH]c3ccccc34)nc2C1=O', 'satisfied');

Lab log: compare recorded selectivity ratio with 0.4; is it strictly lower for CCCCOC(=O)c1cc2c([nH]c3ccc(F)cc32)c(-c2ccc3c(n2)C(=O)C(NC(C)=O)=CC3=O)n1 ?
satisfied

Lab log: compare recorded selectivity ratio with 0.4; is it strictly lower for CCCCOC(=O)c1cc2c([nH]c3ccccc32)c(-c2ccc3c(n2)C(=O)C(NC(=O)CCC)=CC3=O)n1 ?
satisfied

Lab log: compare recorded selectivity ratio with 0.4; is it strictly lower for COC(=O)c1cc2c([nH]c3ccccc32)c(-c2ccc3c(n2)C(=O)C(NC(=O)C(C)C)=CC3=O)n1 ?
not satisfied

Lab log: compare recorded selectivity ratio with 0.4; is it strictly lower for CC(=O)NC1=CC(=O)c2ccc(-c3nc(C(=O)OCCN(C)C)cc4c3[nH]c3ccccc34)nc2C1=O ?
not satisfied

Lab log: compare recorded selectivity ratio with 0.4; is it strictly lower for COC(=O)c1cc2c([nH]c3ccccc32)c(-c2ccc3c(n2)C(=O)C(NC(C)=O)=CC3=O)n1 ?
not satisfied

Lab log: compare recorded selectivity ratio with 0.4; is it strictly lower for CCOC(=O)c1cc2c([nH]c3ccccc32)c(-c2ccc3c(n2)C(=O)C(NC(C)=O)=CC3=O)n1 ?
satisfied

---

Experiment: Differential index, LC50 for rat NRK 52E cells to LC50 for rat N-ras transformed NRK N/4.2 cells
Format: ADME, cell-based
Settings: NRK 52E cells versus N-ras transformed NRK N/4.2 cells
# label = class 1 if selectivity ratio >= 1 else class 0

INSERT INTO measurements (compound, assigned_label) VALUES
  ('CCOC(=O)c1cc2c([nH]c3ccccc32)c(-c2ccc3c(n2)C(=O)C(NC(C)=O)=CC3=O)n1', 'class 0');

API: above_or_equal(metric=selectivity ratio, cutoff=1) for item NC1=CC(=O)c2ccc(-c3[nH]ccc4c5ccccc5nc3-4)nc2C1=O [DECARBOXYDEMETHYLLAVENDAMYCIN]
class 1

API: above_or_equal(metric=selectivity ratio, cutoff=1) for item CCCCOC(=O)c1cc2c([nH]c3ccc(F)cc32)c(-c2ccc3c(n2)C(=O)C(NC(C)=O)=CC3=O)n1
class 0

API: above_or_equal(metric=selectivity ratio, cutoff=1) for item CCCCOC(=O)c1cc2c([nH]c3ccc(OC)cc32)c(-c2ccc3c(n2)C(=O)C(NC(C)=O)=CC3=O)n1
class 1

API: above_or_equal(metric=selectivity ratio, cutoff=1) for item CCCC(=O)NC1=CC(=O)c2ccc(-c3nc(C(=O)OC)c(C)c4c3[nH]c3ccccc34)nc2C1=O
class 0

API: above_or_equal(metric=selectivity ratio, cutoff=1) for item CCCCCCCCOC(=O)c1cc2c([nH]c3ccccc32)c(-c2ccc3c(n2)C(=O)C(NC(C)=O)=CC3=O)n1
class 1

API: above_or_equal(metric=selectivity ratio, cutoff=1) for item CC(=O)NC1=CC(=O)c2ccc(-c3[nH]c(CO)cc4c5ccccc5nc3-4)nc2C1=O
class 1
